B1: tRNA (parent)
chain: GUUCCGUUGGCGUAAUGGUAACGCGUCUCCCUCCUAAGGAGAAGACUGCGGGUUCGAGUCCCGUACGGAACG

- Variants of: B1
- procedure-text: yeast fitness relative to wild type (ratio to wild type); higher = fitter; tRNA-Arg(CCU), competitive growth, 37 C, YPD
This sample holds only a part of the variants without activity.
reported-metric: yeast fitness
Give a plain numeric answer without units written out.

Would you mind telling me what yeast fitness value was observed for G25A C62U G68A ?
0.641

Returns the measured yeast fitness for the input variant. Input: C4G C27A C46U
0.539

Entry under review: U19A C66A . Reported yeast fitness?
0.607

So what's the measured yeast fitness for this one? U2A A14C A20G A36G U54C C55U G68C
0.544

Requested field: yeast fitness. Item: U32A G63U U64A A65U
0.634

Would you kindly share the measured yeast fitness for U3G C24U C31U A69U ?
0.839

# query: yeast fitness of entry G41C G56A
0.825

For the variant shown here, A40U G52A C60U G63C , give the reported yeast fitness.
0.661

// yeast fitness lookup, key: U8A A69U
0.719

Bench note: what yeast fitness did G12C A43G G63A show?
0.556

Can you share its yeast fitness? I mean this variant: C11U C61G
0.638

Please look up its yeast fitness: C5G U16A C29U A40U
0.523

Query: yeast fitness; subject: G58C A69G
0.961

Need yeast fitness, item C22G A36C
0.585

Fill in the blank: the reported yeast fitness of G48C C62U G68C is ____.
0.557

Recorded yeast fitness for A20U U26A C55U , please?
0.747

Look at this variant and give its reported yeast fitness. A15G G18U
0.75

For U16G C22G A65U , what is its reported yeast fitness?
0.722

Consider the variant shown here: A36C A42U What is its recorded yeast fitness?
0.639

// yeast fitness lookup, key: U13A G41A
0.714

Would you kindly share the measured yeast fitness for A21U A65G A70C ?
0.56

Need yeast fitness, item A43C A45G A69C
0.643

Please look up its yeast fitness: C5U C33U
0.71

Return reported yeast fitness; argument: A21C A37U A42U C46G U47G
0.534

yeast fitness lookup needed for C11U G18C C24G C46A , thanks.
0.537

State the recorded yeast fitness for this entry: C5A A14U
0.654
